# Lookup of reported pIC50 keyed by entry
targetOfAssay: human Cot catalytic domain (30-397 amino acids) (Homo sapiens)
Construct: Purified recombinant human Cot catalytic domain (30-397 amino acids) was purchased from Cama Biosciences; purchased Cama Biosciences (so in the source)
Sequence (P41279 30-397): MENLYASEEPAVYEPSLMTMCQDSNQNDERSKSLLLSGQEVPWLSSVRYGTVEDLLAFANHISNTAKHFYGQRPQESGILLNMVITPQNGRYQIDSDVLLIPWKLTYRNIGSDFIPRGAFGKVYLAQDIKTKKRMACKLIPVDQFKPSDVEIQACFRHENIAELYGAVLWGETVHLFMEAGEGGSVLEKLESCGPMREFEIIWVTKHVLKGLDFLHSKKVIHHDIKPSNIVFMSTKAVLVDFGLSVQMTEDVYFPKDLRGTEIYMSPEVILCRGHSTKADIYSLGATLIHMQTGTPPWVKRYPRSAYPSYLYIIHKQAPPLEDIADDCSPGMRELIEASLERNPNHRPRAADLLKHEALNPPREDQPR
methodNotes: High Throughput Cot Biochemical Assay (KinEASE TR-FRET)
recordedConditions: Cot KinEASE TR-FRET (HTRF) biochemical assay, 400 μM ATP; read-out: IC50 HTRF
Scale note: pIC50 = -log10(concentration in M).

# annotated cases, reported pIC50 shown
chemicalStructure | pIC50
[2H][C@@](Nc1cc(Cl)c2ncc(C#N)c(N[C@@H]3[C@@H]4CCC[C@@H]43)c2c1)(c1cn(C2CC2)nn1)c1ccccc1Cl | 7.85
CC[C@@H](Nc1c(C#N)cnc2c(Cl)cc(N[C@@H](c3cccc(F)c3)c3cn(C4CC4)nn3)cc12)c1ccccc1 | 7.92
CC1(n2cc([C@@H](Nc3cc(Cl)c4ncc(C#N)c(Nc5cnc(F)c(F)c5)c4c3)c3ccc(F)cc3)nn2)COC1 | 7.82

Consider the additional compound presented here.
[in] Return value of pIC50 for input `N#Cc1ccccc1[C@H](Nc1cc(Cl)c2ncc(C#N)c(Nc3cnc(F)c(F)c3)c2c1)c1cn(C2CC2)nn1` , no commentary.
[out] 8.10
